Listed below: EC50 values for each entry.
# Study Target: human GPR119 (Homo sapiens, UniProt Q8TDV5)
# Sequence (Q8TDV5 1-335): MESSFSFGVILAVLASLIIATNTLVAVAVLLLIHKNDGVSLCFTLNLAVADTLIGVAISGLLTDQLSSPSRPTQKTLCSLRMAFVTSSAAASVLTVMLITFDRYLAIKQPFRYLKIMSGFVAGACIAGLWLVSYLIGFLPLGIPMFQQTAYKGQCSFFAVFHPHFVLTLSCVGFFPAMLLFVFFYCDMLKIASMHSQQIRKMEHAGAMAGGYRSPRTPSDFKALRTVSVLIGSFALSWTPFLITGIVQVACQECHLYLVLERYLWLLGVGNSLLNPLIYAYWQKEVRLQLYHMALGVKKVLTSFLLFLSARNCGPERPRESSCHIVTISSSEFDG
# Experimental Protocol: Cyclic AMP Assay in Stable Cell Line (HTRF)
# Condition Label: Flp-In-CHO-hGPR119 cells, intracellular cAMP, 30 minutes at 37° C., 1 mM IBMX
Property Label: EC50

>>> test_value("CC(F)(F)c1noc(CN2CC(Oc3c(F)cc(C4CCN(S(C)(=O)=O)CC4)cc3F)C2)n1")
"108 nM"
>>> test_value("CS(=O)(=O)N1CCC(c2c(F)cc(OC3CCN(Cc4nc(C(F)(F)F)no4)CC3)cc2F)CC1")
"50 nM"
>>> test_value("CS(=O)(=O)N1CCC(c2cc(F)c(OC3CN(Cc4cccc5ccccc45)C3)c(F)c2)CC1")
"652 nM"
>>> test_value("CS(=O)(=O)N1CCC(c2cc(F)c(OC3CN(Cc4ccc5ccccc5c4)C3)c(F)c2)CC1")
"135 nM"

###

Listed here: items and their measured pEC50.
# Study Target: human GPR119 (Homo sapiens)
# Sequence (Q8TDV5 1-335): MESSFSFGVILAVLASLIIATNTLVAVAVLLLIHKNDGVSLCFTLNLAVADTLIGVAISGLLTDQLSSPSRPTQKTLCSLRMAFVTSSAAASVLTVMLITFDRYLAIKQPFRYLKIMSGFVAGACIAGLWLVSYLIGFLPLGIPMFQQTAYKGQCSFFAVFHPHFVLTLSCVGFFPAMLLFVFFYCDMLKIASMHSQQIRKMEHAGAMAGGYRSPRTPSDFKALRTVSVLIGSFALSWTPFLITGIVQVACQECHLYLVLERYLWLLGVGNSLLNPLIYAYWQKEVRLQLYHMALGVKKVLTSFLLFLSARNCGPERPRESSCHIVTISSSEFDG
# Experimental Protocol: Cyclic AMP Assay in Stable Cell Line (HTRF)
# Condition Label: Flp-In-CHO-hGPR119 cells, intracellular cAMP, 30 minutes at 37° C., 1 mM IBMX
pEC50: −log10 of the molar value.
Property Label: pEC50

>>> test_value("CC(F)(F)c1noc(CN2CCC(Oc3c(F)cc(C4CCN(S(C)(=O)=O)CC4)cc3F)CC2)n1")
7.80
>>> test_value("CC(Cc1ccc(C(F)(F)F)cc1)N1CC(Oc2c(F)cc(C3CCN(S(C)(=O)=O)CC3)cc2F)C1 (stereo not shown)")
6.75
>>> test_value("CC(C)c1ccc(CN2CC(Oc3cnc(N4CCN(S(C)(=O)=O)CC4=O)cn3)C2)cc1")
7.92
>>> test_value("CS(=O)(=O)N1CCC(c2cc(F)c(OC3CCN(Cc4csc(C(F)(F)F)n4)CC3)c(F)c2)CC1")
7.28
>>> test_value("CS(=O)(=O)N1CCC(F)(c2cc(F)c(OC3CCN(Cc4nc(C(F)(F)F)no4)CC3)c(F)c2)CC1 [Example D1]")
6.70
>>> test_value("CS(=O)(=O)N1CCC(c2cc(F)c(OC3CN(Cc4csc(C(F)(F)F)n4)C3)c(F)c2)CC1")
6.35
>>> test_value("CS(=O)(=O)N1CCC(c2cc(F)c(OC3CN(Cc4nc(C(F)(F)F)cs4)C3)c(F)c2)CC1")
7.13

###

# Study Target: UniProt Q8TDV5
# Experimental Protocol: Cyclic AMP Assay in Stable Cell Line (HTRF)
# Condition Label: Flp-In-CHO-hGPR119 cells, intracellular cAMP, 30 minutes at 37° C., 1 mM IBMX
Each entry belongs to exactly one class, chosen by where its EC50 falls: low bin (below 30 nM), mid bin (30 nM to below 200 nM), high bin (200 nM or more)

>>> class_label("CC(C)c1ccc(CN2CC(Oc3ccc(N4CCN(C(=O)OCc5ccccc5)CC4=O)nc3)C2)cc1")
"high bin"
>>> class_label("CS(=O)(=O)N1CCC(c2ccc(OC3CCN(Cc4nc(C(F)(F)F)no4)CC3)c(F)c2F)CC1")
"low bin"
>>> class_label("CS(=O)(=O)N1CCN(c2cnc(OC3CCN(Cc4nc(C(F)(F)F)no4)CC3)cn2)CC1")
"high bin"
>>> class_label("Cn1nc(C(F)(F)F)nc1CN1CCC(Oc2c(F)cc(C3CCN(S(C)(=O)=O)CC3)cc2F)CC1")
"high bin"
>>> class_label("CC(C)c1nc(CN2CC(Oc3c(F)cc(C4CCN(S(C)(=O)=O)CC4)cc3F)C2)no1")
"high bin"
>>> class_label("CS(=O)(=O)N1CCN(c2cnc(OC3CN(Cc4ccc(C(F)(F)F)cc4)C3)cn2)C(=O)C1")
"low bin"
>>> class_label("CS(=O)(=O)N1CCC(c2cc(F)c(OC3CCN(Cc4ccc(C(F)(F)F)nc4)CC3)c(F)c2)CC1")
"mid bin"
>>> class_label("CS(=O)(=O)N1CCC(c2cc(F)c(OC3CCN(Cc4nc(C(F)(F)F)no4)CC3)cc2F)CC1")
"low bin"
>>> class_label("CS(=O)(=O)N1CCC(c2cc(F)c(OC3CCCN(Cc4ccc(C(F)(F)F)cc4)CC3)c(F)c2)CC1 (centres unmarked)")
"mid bin"
>>> class_label("CCCS(=O)(=O)N1CCN(c2ccc(OC3CN(Cc4ccc(C(F)(F)F)cc4)C3)cn2)C(=O)C1")
"low bin"
>>> class_label("CS(=O)(=O)N1CCC(c2cc(F)c(OC3CN(Cc4ncc(C(F)(F)F)cc4Cl)C3)c(F)c2)CC1")
"high bin"
>>> class_label("O=S(=O)(C1CCNCC1)N1CCC(c2cc(F)c(OC3CN(Cc4ccc(C(F)(F)F)cc4)C3)c(F)c2)CC1")
"high bin"
>>> class_label("O=S(=O)(C1CCOCC1)N1CCC(c2cc(F)c(OC3CN(Cc4ccc(C(F)(F)F)cc4)C3)c(F)c2)CC1")
"low bin"
>>> class_label("CCCS(=O)(=O)N1CCN(c2ccc(OC3CN(Cc4ccc(C(F)(F)F)cc4)C3)cn2)CC1")
"mid bin"
>>> class_label("CS(=O)(=O)N1CCC(c2cc(F)c(OC3CCN(Cc4nc(C(F)F)no4)CC3)c(F)c2)CC1")
"mid bin"
>>> class_label("CS(=O)(=O)N1CCN(c2ccc(OC3CN(Cc4ccc(C(F)(F)F)cc4)C3)cn2)CC1")
"mid bin"
>>> class_label("CS(=O)(=O)N1CCC(c2cc(F)c(OC3CN(Cc4ccc(C(F)(F)F)cc4)C3)c(F)c2)CC1")
"low bin"

###

# Study Target: human GPR119 (Homo sapiens, UniProt Q8TDV5)
# Sequence (Q8TDV5 1-335): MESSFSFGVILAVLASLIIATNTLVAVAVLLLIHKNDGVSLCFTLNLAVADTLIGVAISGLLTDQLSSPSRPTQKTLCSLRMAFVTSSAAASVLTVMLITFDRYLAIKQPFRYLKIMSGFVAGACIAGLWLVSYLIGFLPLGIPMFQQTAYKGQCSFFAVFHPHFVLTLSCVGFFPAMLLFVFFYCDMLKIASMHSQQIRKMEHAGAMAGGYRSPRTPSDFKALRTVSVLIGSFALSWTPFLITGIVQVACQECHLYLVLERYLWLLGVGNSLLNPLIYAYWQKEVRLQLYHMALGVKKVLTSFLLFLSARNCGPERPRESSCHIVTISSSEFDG
# Experimental Protocol: Cyclic AMP Assay in Stable Cell Line (HTRF)
# Condition Label: Flp-In-CHO-hGPR119 cells, intracellular cAMP, 30 minutes at 37° C., 1 mM IBMX
Strictly below 40 nM in EC50: Y. Otherwise: N.

>>> class_label("O=S(=O)(CCCO)N1CCC(c2cc(F)c(OC3CN(Cc4ccc(C(F)(F)F)cc4)C3)c(F)c2)CC1 [Example A41]")
"Y"
>>> class_label("CS(=O)(=O)N1CCC(c2cc(F)c(OC3CN(C(CO)c4ccc(C(F)(F)F)cc4)C3)c(F)c2)CC1 (stereo not drawn) [Example A29]")
"N"
>>> class_label("CS(=O)(=O)N1CCC(c2ccc(OC3CCN(Cc4nc(C(F)(F)F)no4)CC3)cc2)CC1 [Example B26]")
"Y"
>>> class_label("CS(=O)(=O)N1CCC(c2ccc(OC3CCN(Cc4nc(C(F)(F)F)no4)CC3)cc2F)CC1 [Example B7]")
"Y"
>>> class_label("CS(=O)(=O)N1CCN(c2ccc(OC3CN(Cc4ccc(C(F)(F)F)cc4)C3)cn2)C(=O)C1 [Example A17]")
"Y"
>>> class_label("CS(=O)(=O)N1CCC(c2cc(F)c(OC3CCN(Cc4cccc(C(F)(F)F)c4)CC3)c(F)c2)CC1 [Example A45]")
"N"
>>> class_label("CC(C)c1ccc(CN2CC(Oc3ccc(N4CCN(S(C)(=O)=O)CC4=O)nc3)C2)cc1 [Example A18]")
"Y"
>>> class_label("CS(=O)(=O)N1CCN(c2ccc(OC3CN(Cc4ccc(OC(F)(F)F)cc4)C3)cn2)CC1 [Example A8]")
"N"
>>> class_label("CS(=O)(=O)N1CCN(c2ccc(OC3CN(Cc4ccc(C(F)(F)F)cc4)C3)c(F)c2)CC1 [Example A43]")
"N"

Where do these numbers come from? They come from patent US8575168B2.
